# testedTarget: UniProt Q9QZN9
# testDetails: cell-based
# Type: cell-based
# assayConditions: agonist or inverse agonist at rCB2
propertyName: +/− RCB2

- compound: "CNC(=O)[C@@H](NC(=O)c1nc(C2CCCCC2)n2c1CN(C)CCC2)C(C)(C)C"
  recordedMeasurement: "+"
- compound: "CNC(=O)[C@@H](NC(=O)c1nc(C2=CCCCC2)n2c1CN(C)CC2)C(C)(C)C"
  recordedMeasurement: "+"
- compound: "CNC(=O)[C@@H](NC(=O)c1nc(-c2cc(C)ccc2F)n2c1CN(C)CC2)C(C)(C)C"
  recordedMeasurement: "−"
- compound: "O=C(Nc1ccccc1)c1nc(-c2ccccc2)n2c1CN(CCO)CC2"
  recordedMeasurement: "−"
- compound: "CNC(=O)[C@@H](NC(=O)c1nc(-c2ccccc2)n2c1CN(CCC(C)(C)C)CC2)C(C)(C)C"
  recordedMeasurement: "−"
- compound: "CNC(=O)[C@@H](NC(=O)c1nc(-c2cc(F)c(F)cc2F)n2c1CN(C)CCC2)C1CCCCC1"
  recordedMeasurement: "+"
- compound: "CCN1CCn2c(-c3ccccc3)nc(C(=O)Nc3ccccc3)c2C1"
  recordedMeasurement: "−"
- compound: "CNC(=O)[C@@H](NC(=O)c1nc(C2=CCC(C)CC2)n2c1CN(C)CCC2)C(C)(C)C (some centres unmarked)"
  recordedMeasurement: "+"

* * *

# testedTarget: rat CB2 receptor (rCB2) (Rattus norvegicus)
# Sequence (Q9QZN9 1-360): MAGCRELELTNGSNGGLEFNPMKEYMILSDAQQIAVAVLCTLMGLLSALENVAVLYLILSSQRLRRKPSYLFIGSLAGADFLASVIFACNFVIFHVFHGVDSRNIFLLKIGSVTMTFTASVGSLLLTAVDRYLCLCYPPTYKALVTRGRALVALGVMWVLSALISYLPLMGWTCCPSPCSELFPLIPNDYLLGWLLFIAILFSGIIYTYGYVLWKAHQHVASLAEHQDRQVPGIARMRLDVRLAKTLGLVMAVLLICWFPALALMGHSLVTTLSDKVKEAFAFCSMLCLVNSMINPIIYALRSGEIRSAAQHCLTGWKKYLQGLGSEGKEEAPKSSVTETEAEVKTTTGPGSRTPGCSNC
# testDetails: cell-based
# Type: cell-based
# assayConditions: agonist or inverse agonist at rCB2

- compound: "CN1CCCn2c(-c3ccc(F)c(F)c3)nc(C(=O)N[C@H](C(N)=O)C(C)(C)C)c2C1 [Compound 581]"
  +/− RCB2: "+"
- compound: "CNC(=O)[C@@H](NC(=O)c1nc(-c2cscc2C)n2c1CNCC2)C(C)(C)C [Compound 21]"
  +/− RCB2: "+"
- compound: "CNC(=O)[C@@H](NC(=O)c1nc(-c2cccc(-c3ccccc3)c2)n2c1CN(C)CCC2)C(C)(C)C [Compound 383]"
  +/− RCB2: "−"
- compound: "CNC(=O)[C@@H](NC(=O)c1nc(/C=C/C(C)(C)C)n2c1CN(C)CC2)C(C)(C)C [Compound 263]"
  +/− RCB2: "+"
- compound: "CNC(=O)[C@H](CC(C)C)NC(=O)c1nc(-c2ccc(Cl)c(F)c2)n2c1CN(C)CC2 [Compound 277]"
  +/− RCB2: "−"
- compound: "CNC(=O)[C@@H](NC(=O)c1nc(-c2c(F)cccc2OC)n2c1CN(C)CCC2)C(C)(C)C [Compound 365]"
  +/− RCB2: "+"
- compound: "CNC(=O)[C@H](CC(C)C)NC(=O)c1nc(-c2cccc(F)c2)n2c1CN(C)CCC2 [Compound 531]"
  +/− RCB2: "+"

* * *

# testedTarget: rat CB2 receptor (rCB2) (Rattus norvegicus)
# testDetails: cell-based
# Type: cell-based
# assayConditions: agonist or inverse agonist at rCB2
propertyName: +/− RCB2

- structureSmiles: "Cc1ccc(-c2nc(C(=O)N[C@H](c3nc(C)no3)C(C)(C)C)c3n2CCCN(C(C)C)C3)c(F)c1"
  recordedMeasurement: "−"
- structureSmiles: "CN1CCCn2c(-c3cc(F)ccc3F)nc(C(=O)N[C@H](C(N)=O)C(C)(C)C)c2C1"
  recordedMeasurement: "+"
- structureSmiles: "CC(C)C[C@H](NC(=O)c1nc(-c2cc(Cl)ccc2F)n2c1CN(C)CCC2)C(N)=O"
  recordedMeasurement: "+"
- structureSmiles: "CNC(=O)[C@@H](NC(=O)c1nc(C2=CCCCC2)n2c1CN(C)CCC2)C(C)(C)C"
  recordedMeasurement: "+"
- structureSmiles: "CNC(=O)[C@@H](NC(=O)c1nc(CCCN2CCCC2)n2c1CN(C)CCC2)C(C)(C)C"
  recordedMeasurement: "+"
- structureSmiles: "CNC(=O)[C@H](CC(C)C)NC(=O)c1nc(-c2ccc(C(F)(F)F)cc2F)n2c1CN(C)CCC2"
  recordedMeasurement: "+"
- structureSmiles: "CNC(=O)[C@@H](NC(=O)c1nc(-c2cccc(NS(C)(=O)=O)c2)n2c1CN(C)CCC2)C(C)(C)C"
  recordedMeasurement: "−"

* * *

# testedTarget: rat CB2 receptor (rCB2) (Rattus norvegicus)
# testDetails: cell-based
# Assay type: cell-based
# assayConditions: agonist or inverse agonist at rCB2

- compound: "CNC(=O)[C@@H](NC(=O)c1nc(-c2ccccc2)n2c1CN(c1cccc(Cl)n1)CC2)C(C)(C)C [Compound 299]"
  testedTarget: "rat CB2 receptor (rCB2) (Rattus norvegicus)"
  +/− RCB2: "−"
- compound: "CNC(=O)[C@@H](NC(=O)c1nc(-c2ccccc2)n2c1CN(S(=O)(=O)C(C)C)CC2)C(C)(C)C [Compound 94]"
  testedTarget: "rat CB2 receptor (rCB2) (Rattus norvegicus)"
  +/− RCB2: "−"
- compound: "CNC(=O)[C@@H](NC(=O)c1nc(-c2ccc(C(F)(F)F)cc2F)n2c1CN(C)CCC2)C(C)(C)C [Compound 368]"
  testedTarget: "rat CB2 receptor (rCB2) (Rattus norvegicus)"
  +/− RCB2: "+"
- compound: "CNC(=O)[C@H](CC(C)(C)C)NC(=O)c1nc(-c2ccc(F)c(F)c2)n2c1CN(C)CCC2 [Compound 552]"
  testedTarget: "rat CB2 receptor (rCB2) (Rattus norvegicus)"
  +/− RCB2: "+"
- compound: "CNC(=O)[C@@H](NC(=O)c1nc(-c2cccs2)n2c1CN(C)CCC2)C(C)(C)C [Compound 349]"
  testedTarget: "rat CB2 receptor (rCB2) (Rattus norvegicus)"
  +/− RCB2: "+"
- compound: "CNC(=O)[C@H](CC(C)C)NC(=O)c1nc(-c2cc(Cl)c(F)cc2F)n2c1CN(C)CCC2 [Compound 539]"
  testedTarget: "rat CB2 receptor (rCB2) (Rattus norvegicus)"
  +/− RCB2: "+"
- compound: "CCCN1CCn2c(-c3ccccc3)nc(C(=O)Nc3ccccc3)c2C1 [Compound 154]"
  testedTarget: "rat CB2 receptor (rCB2) (Rattus norvegicus)"
  +/− RCB2: "−"
- compound: "CNC(=O)[C@@H](NC(=O)c1nc(-c2ccccc2)n2c1CN(C)CCC2)C(C)(C)C [Compound 317]"
  testedTarget: "rat CB2 receptor (rCB2) (Rattus norvegicus)"
  +/− RCB2: "+"

* * *

# testedTarget: rat CB2 receptor (rCB2) (Rattus norvegicus)
# testDetails: cell-based
# Format: cell-based
# assayConditions: agonist or inverse agonist at rCB2

- compound: "CNC(=O)[C@@H](NC(=O)c1nc(-c2ccc(C#N)cc2)n2c1CN(C)CC2)C(C)(C)C"
  +/− RCB2: "−"
- compound: "CNC(=O)[C@H](CC(C)(C)C)NC(=O)c1nc(-c2cc(F)c(F)cc2F)n2c1CN(C)CCC2"
  +/− RCB2: "+"
- compound: "CNC(=O)[C@H](CC(C)C)NC(=O)c1nc(-c2ccccc2)n2c1CN(C)CC2"
  +/− RCB2: "+"
- compound: "CNC(=O)[C@@H](NC(=O)c1nc(-c2cc(C(F)(F)F)ccc2F)n2c1CN(C)CC2)C(C)(C)C"
  +/− RCB2: "−"
- compound: "CC(C)=CC(=O)c1nc(-c2ccccc2)n2c1CN(C)CC2"
  +/− RCB2: "−"
- compound: "CCC(=O)N1CCn2c(-c3ccccc3)nc(C(=O)N[C@H](C(=O)NC)C(C)(C)C)c2C1"
  +/− RCB2: "+"
- compound: "CNC(=O)[C@@H](NC(=O)c1nc(-c2ccc(F)cc2)n2c1CN(C)CC2)C(C)(C)C"
  +/− RCB2: "+"
- compound: "CNC(=O)[C@@H](NC(=O)c1nc(C2=CCCC2)n2c1CN(C)CCC2)C(C)(C)C"
  +/− RCB2: "+"
- compound: "CNC(=O)[C@@H](NC(=O)c1nc(-c2ccccc2)n2c1CN(CCO)CC2)C(C)(C)C"
  +/− RCB2: "−"
- compound: "CC(C)CCNC(=O)c1nc(-c2ccc(Cl)cc2)n2c1CN(C(=O)c1ccccc1)CC2"
  +/− RCB2: "−"
- compound: "CC(C)CN1CCn2c(-c3ccccc3)nc(C(=O)Nc3ccccc3)c2C1"
  +/− RCB2: "−"
- compound: "CNC(=O)[C@@H](NC(=O)c1nc(-c2cccc(N(C)C)c2)n2c1CN(C)CCC2)C(C)(C)C"
  +/− RCB2: "−"
- compound: "CNC(=O)[C@@H](NC(=O)c1nc(-c2ccccc2F)n2c1CN(C)CCC2)C(C)(C)C"
  +/− RCB2: "+"
- compound: "C=Cc1nc(C(=O)N[C@H](C(=O)NC)C(C)(C)C)c2n1CCCN(C)C2"
  +/− RCB2: "+"
- compound: "CC12CCC(C1)C(C)(C)C2NC(=O)c1nc(-c2ccccc2)n2c1CN(C(=O)c1ccccc1)CC2 (stereo not shown)"
  +/− RCB2: "+"
- compound: "CNC(=O)c1cccc(NC(=O)c2nc(-c3ccc(Cl)cc3F)n3c2CN(C)CC3)c1"
  +/− RCB2: "−"
- compound: "CNC(=O)[C@@H](NC(=O)c1nc(-c2ccc(Cl)cc2F)n2c1CN(C)CC2)C(C)(C)C"
  +/− RCB2: "−"
- compound: "CNC(=O)[C@@H](NC(=O)c1nc(-c2cccnc2)n2c1CNCC2)C(C)(C)C"
  +/− RCB2: "+"
- compound: "CC(C)(C)CNC(=O)c1nc(-c2ccccc2)n2c1CN(S(=O)(=O)c1ccccc1)CC2"
  +/− RCB2: "−"
- compound: "CNC(=O)[C@@H](NC(=O)c1nc(-c2cnn(C)c2)n2c1CN(C)CCC2)C(C)(C)C"
  +/− RCB2: "+"
- compound: "CNC(=O)[C@@H](NC(=O)c1nc(-c2ccc(C)cc2F)n2c1CNCCC2)C(C)(C)C"
  +/− RCB2: "−"
- compound: "CC(C)C[C@H](NC(=O)c1nc(-c2ccc(F)cc2F)n2c1CN(C)CCC2)C(N)=O"
  +/− RCB2: "+"
- compound: "CNC(=O)[C@@H](NC(=O)c1nc(-c2ccccc2)n2c1CN(Cc1cnn(C)c1)CC2)C(C)(C)C"
  +/− RCB2: "+"
- compound: "CC(C)(C)OC(=O)N1CCn2c(-c3ccccc3)nc(C(=O)NCC3CCOCC3)c2C1"
  +/− RCB2: "−"
- compound: "O=C(c1nc(-c2ccccc2)n2c1CN(S(=O)(=O)c1ccc(F)cc1)CC2)N1CCOCC1"
  +/− RCB2: "−"
- compound: "COC(=O)N1CCn2c(-c3ccccc3)nc(C(=O)NN3CCCCC3)c2C1"
  +/− RCB2: "−"
- compound: "CNC(=O)[C@@H](NC(=O)c1nc(-c2ccccc2)n2c1CN(S(=O)(=O)c1ccccc1F)CC2)C(C)(C)C"
  +/− RCB2: "−"
- compound: "CCN1CCn2c(-c3ccccc3)nc(C(=O)N[C@H](C(=O)NC)C(C)(C)C)c2C1"
  +/− RCB2: "−"
- compound: "Cc1ccc(-c2nc(C(=O)N[C@H](C(=O)O)C(C)(C)C)c3n2CCCN(C(=O)OC(C)(C)C)C3)c(F)c1"
  +/− RCB2: "−"
- compound: "CC(C)C[C@H](NC(=O)c1nc(-c2cc(F)c(F)cc2F)n2c1CN(C)CCC2)C(N)=O"
  +/− RCB2: "+"
- compound: "CCC/C=C/c1nc(C(=O)N[C@H](C(=O)NC)C(C)(C)C)c2n1CCCN(C)C2"
  +/− RCB2: "+"
